experiment notes: self-splicing fitness, log relative to wild type (ln ratio); higher = more splicing; Tetrahymena group I intron in knt gene, E. coli kanamycin selection, DiMSum; sequences stand for … in CUCUCU…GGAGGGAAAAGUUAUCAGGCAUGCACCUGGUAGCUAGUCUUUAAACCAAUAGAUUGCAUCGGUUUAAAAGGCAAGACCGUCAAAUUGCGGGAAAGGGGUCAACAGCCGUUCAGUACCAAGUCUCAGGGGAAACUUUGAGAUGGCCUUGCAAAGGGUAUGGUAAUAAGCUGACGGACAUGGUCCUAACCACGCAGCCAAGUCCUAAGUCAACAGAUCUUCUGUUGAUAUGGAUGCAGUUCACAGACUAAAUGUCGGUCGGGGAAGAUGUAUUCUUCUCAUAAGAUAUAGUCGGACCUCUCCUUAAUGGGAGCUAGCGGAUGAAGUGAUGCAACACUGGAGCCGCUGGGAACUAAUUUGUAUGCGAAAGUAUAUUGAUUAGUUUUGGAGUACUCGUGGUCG;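 also: selection with 25 µg/mL kanamycin versus none on LB agar overnight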
condition: 30 °C
Values of self-splicing fitness (ln) greater than or equal to -2 map to y; values below map to n.

Before answering, review these 3 worked examples.
AGCGAGCAAUAUUACGGUCC
y
GGCUAGCAAUAUUACGAAUA
y
GUCAAGCAAUAUUACGAGGU
n

Enquiry: Quick check, self-splicing fitness (ln) >= -2? UCCGAGCAAUAUUACGACAC
Return: n

Enquiry: Quick check, self-splicing fitness (ln) >= -2? UGCGAGCAAUAUUACGAUUG
Return: n

====

Recorded self-splicing fitness (ln), one value per entry.
experiment notes: self-splicing fitness, log relative to wild type (ln ratio); higher = more splicing; Tetrahymena group I intron in knt gene, E. coli kanamycin selection, DiMSum; sequences stand for … in CUCUCU…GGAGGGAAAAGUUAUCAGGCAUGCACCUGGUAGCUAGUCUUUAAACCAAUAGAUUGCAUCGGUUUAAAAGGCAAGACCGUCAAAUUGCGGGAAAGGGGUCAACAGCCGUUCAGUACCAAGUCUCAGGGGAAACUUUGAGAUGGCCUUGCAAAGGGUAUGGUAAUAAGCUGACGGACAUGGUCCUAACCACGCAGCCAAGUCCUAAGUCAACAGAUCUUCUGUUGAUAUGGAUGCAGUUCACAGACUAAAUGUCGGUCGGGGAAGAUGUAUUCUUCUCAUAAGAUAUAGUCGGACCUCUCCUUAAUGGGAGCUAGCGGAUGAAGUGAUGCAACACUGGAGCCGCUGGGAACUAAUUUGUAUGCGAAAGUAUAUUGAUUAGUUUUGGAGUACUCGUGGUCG
condition: 30 °C
Enter a number only.

# self-splicing fitness (ln) of AUGCAGCAAUAUUACGGCAG = -0.985

# self-splicing fitness (ln) of GAAUAGCAAUAUUACGGACU = -0.83

# self-splicing fitness (ln) of UCUCAGCAAUAUUACGAGCU = -1.48

# self-splicing fitness (ln) of UUGGAGCAAUAUUACGAUGA = -0.635

# self-splicing fitness (ln) of GCCGAGCAAUAUUACGACAU = -2.29

# self-splicing fitness (ln) of GACAAGCAAUAUUACGGUAA = -1.69

# self-splicing fitness (ln) of GACAAGCAAUAUUACGGGGC = -3.36

====

experiment notes: self-splicing fitness, log relative to wild type (ln ratio); higher = more splicing; Tetrahymena group I intron in knt gene, E. coli kanamycin selection, DiMSum; sequences stand for … in CUCUCU…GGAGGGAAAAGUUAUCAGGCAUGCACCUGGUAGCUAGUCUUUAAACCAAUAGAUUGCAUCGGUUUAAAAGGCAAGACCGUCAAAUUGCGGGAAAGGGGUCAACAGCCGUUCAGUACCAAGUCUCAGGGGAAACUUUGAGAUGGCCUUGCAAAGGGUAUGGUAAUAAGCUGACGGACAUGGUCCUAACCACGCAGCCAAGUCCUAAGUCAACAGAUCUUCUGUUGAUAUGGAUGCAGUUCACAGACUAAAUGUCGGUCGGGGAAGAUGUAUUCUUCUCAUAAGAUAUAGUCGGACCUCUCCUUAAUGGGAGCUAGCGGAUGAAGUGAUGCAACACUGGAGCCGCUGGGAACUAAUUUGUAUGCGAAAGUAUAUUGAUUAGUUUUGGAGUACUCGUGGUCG
condition: 37 °C
Recorded self-splicing fitness (ln), one value per entry.
Enter a number only.

Sample answers from the record:
GCGAAGCAAUAUUACGAAUU
-2.38
GAUCAGCAAUAUUACGCUUU
-0.877

# self-splicing fitness (ln) of AAAGAGCAAUAUUACGGCGC = -0.545

# self-splicing fitness (ln) of AGCGAGCAAUAUUACGUGCG = -0.964

The reported numbers originate from the supplement of paper PMC7877785.
